# targetSystem: human RORγ (Homo sapiens)
# Sequence (P51449 269-508 limits assumed): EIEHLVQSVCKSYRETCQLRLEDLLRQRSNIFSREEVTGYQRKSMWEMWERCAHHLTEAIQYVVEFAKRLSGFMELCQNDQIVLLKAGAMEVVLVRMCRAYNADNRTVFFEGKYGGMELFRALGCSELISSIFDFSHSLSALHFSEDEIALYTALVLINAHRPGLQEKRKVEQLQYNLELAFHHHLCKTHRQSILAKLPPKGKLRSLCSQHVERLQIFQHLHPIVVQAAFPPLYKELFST
# assay: RORγ assay (GAL4-RORγ hybrid luciferase reporter, inverse-agonist activity)
# testSettings: GAL4-RORγ hybrid reporter cells, 23 hours

>  <compound>
Cc1nnc([C@]23CCC(C)(C)C[C@H]2[C@H]2C(=O)C=C4[C@@]5(C)C=C(C#N)C(=O)C(C)(C)[C@@H]5CC[C@@]4(C)[C@]2(C)CC3)o1 [Comparison Compound #8, reference compound]

>  <IC50 / nM>
222

$$$$
>  <compound>
COC(=O)[C@]12CCC(C)(C)C[C@H]1[C@H]1C(=O)C=C3[C@@]4(C)C=C(C#N)C(=O)[C@@](C)(N)[C@@H]4CC[C@@]3(C)[C@]1(C)CC2 [Compound T11]

>  <IC50 / nM>
146

$$$$
>  <compound>
CC1(C)CC[C@@]23CC[C@@]4(C)[C@]5(C)CC[C@H]6C(C)(C)C(=O)C(C#N)=C[C@]6(C)C5=CC(=O)[C@]4(OC2=O)[C@@H]3C1 [Comparison Compound #6, reference compound]

>  <IC50 / nM>
159

$$$$
>  <compound>
COC(=O)N[C@]12CCC(C)(C)C[C@H]1[C@H]1C(=O)C=C3[C@@]4(C)C=C(C#N)C(=O)[C@@](C)(CO)[C@@H]4CC[C@@]3(C)[C@]1(C)CC2 [Compound T40]

>  <IC50 / nM>
698

$$$$
>  <compound>
COC(=O)[C@]12CCC(C)(C)C[C@H]1[C@H]1C(=O)C=C3[C@@]4(C)C=C(C#N)C(=O)[C@](C)(CO)[C@@H]4CC[C@@]3(C)[C@]1(C)CC2 [Comparison Compound #301, reference compound]

>  <IC50 / nM>
144

$$$$
>  <compound>
CNC(=O)[C@]1(C)C(=O)C(C#N)=C[C@]2(C)C3=CC(=O)[C@@H]4[C@@H]5CC(C)(C)CC[C@]5(C(=O)OC)CC[C@@]4(C)[C@]3(C)CC[C@@H]12 [Compound T13]

>  <IC50 / nM>
161

$$$$
>  <compound>
CCNC(=O)[C@]12CCC(C)(C)C[C@H]1[C@H]1C(=O)C=C3[C@@]4(C)C=C(C#N)C(=O)[C@@](C)(O)[C@@H]4CC[C@@]3(C)[C@]1(C)CC2 [Compound T26]

>  <IC50 / nM>
292

$$$$
>  <compound>
COC(=O)[C@]12CCC(C)(C)C[C@H]1[C@H]1C(=O)C=C3[C@@]4(C)C=C(C#N)C(=O)[C@@H](C)[C@@H]4CC[C@@]3(C)[C@]1(C)CC2 [Comparison Compound #1, reference compound]

>  <IC50 / nM>
127

$$$$
>  <compound>
COC(=O)[C@]12CCC(C)(C)C[C@H]1[C@H]1C(=O)C=C3[C@@]4(C)C=C(C#N)C(=O)[C@@](C)(C(N)=O)[C@@H]4CC[C@@]3(C)[C@]1(C)CC2 [Compound T15]

>  <IC50 / nM>
206

$$$$
>  <compound>
CN(C)C(=O)[C@]12CCC(C)(C)C[C@H]1[C@H]1C(=O)C=C3[C@@]4(C)C=C(C#N)C(=O)[C@@](C)(O)[C@@H]4CC[C@@]3(C)[C@]1(C)CC2 [Compound T30]

>  <IC50 / nM>
164

$$$$
>  <compound>
COC(=O)N[C@]12CCC(C)(C)C[C@H]1[C@H]1C(=O)C=C3[C@@]4(C)C=C(C#N)C(=O)[C@@](C)(O)[C@@H]4CC[C@@]3(C)[C@]1(C)CC2 [Compound T39]

>  <IC50 / nM>
364

$$$$
>  <compound>
COCOC[C@@]1(C)C(=O)C(C#N)=C[C@]2(C)C3=CC(=O)[C@@H]4[C@@H]5CC(C)(C)CC[C@]5(C(=O)OC)CC[C@@]4(C)[C@]3(C)CC[C@@H]12 [Comparison Compound #302, reference compound]

>  <IC50 / nM>
91

$$$$
>  <compound>
Cc1noc([C@]23CCC(C)(C)C[C@H]2[C@H]2C(=O)C=C4[C@@]5(C)C=C(C#N)C(=O)[C@@](C)(O)[C@@H]5CC[C@@]4(C)[C@]2(C)CC3)n1 [Compound T47]

>  <IC50 / nM>
139

$$$$
>  <compound>
CC(=O)OC[C@]1(C)C(=O)C(C#N)=C[C@]2(C)C3=CC(=O)[C@]45OC(=O)[C@@]6(CCC(C)(C)C[C@H]64)CC[C@@]5(C)[C@]3(C)CC[C@H]21 [Compound T32]

>  <IC50 / nM>
118

$$$$
>  <compound>
COC(=O)[C@]12CCC(C)(C)C[C@H]1[C@H]1C(=O)C=C3[C@@]4(C)C=C(C#N)C(=O)[C@@](C)(NC(=O)OC(C)(C)C)[C@@H]4CC[C@@]3(C)[C@]1(C)CC2 [Compound T10]

>  <IC50 / nM>
1080

$$$$
>  <compound>
CC1(C)CC[C@]2(C(=O)NCC(F)(F)F)CC[C@]3(C)[C@H](C(=O)C=C4[C@@]5(C)C=C(C#N)C(=O)[C@@](C)(O)[C@@H]5CC[C@]43C)[C@@H]2C1 [Compound T24]

>  <IC50 / nM>
197

$$$$
>  <compound>
COC(=O)[C@]12CCC(C)(C)C[C@H]1[C@H]1C(=O)C=C3[C@@]4(C)C=C(C#N)C(=O)[C@@](C)(c5nnc(C)o5)[C@@H]4CC[C@@]3(C)[C@]1(C)CC2 [Compound T16]

>  <IC50 / nM>
406

$$$$
>  <compound>
COC(=O)[C@]12CCC(C)(C)C[C@H]1[C@H]1C(=O)C=C3[C@@]4(C)C=C(C#N)C(=O)[C@@](C)(CO)[C@@H]4CC[C@@]3(C)[C@]1(C)CC2 [Comparison Compound #300, reference compound]

>  <IC50 / nM>
152

$$$$

* * *

# pIC50 per entry
# Test system: hIL17
# assay: IL-17 release from differentiated primary human T-cells (IL-17A HTRF assay)
# Assay type: cell-based
# testSettings: inhibition of IL-17A levels; primary human CD4+ T cells differentiated into Th17 cells, 46-hour incubation
pIC50: −log10 of the molar value.
measure: pIC50

>  <compound>
COC(=O)[C@]12CCC(C)(C)C[C@H]1[C@H]1C(=O)C=C3[C@@]4(C)C=C(C#N)C(=O)[C@@](C)(COC(=O)c5ccccc5)[C@@H]4CC[C@@]3(C)[C@]1(C)CC2

>  <measure>
pIC50

>  <recordedMeasurement>
7.43

$$$$
>  <compound>
CNC(=O)[C@]1(C)C(=O)C(C#N)=C[C@]2(C)C3=CC(=O)[C@@H]4[C@@H]5CC(C)(C)CC[C@]5(C(=O)OC)CC[C@@]4(C)[C@]3(C)CC[C@@H]12

>  <measure>
pIC50

>  <recordedMeasurement>
7.31

$$$$
>  <compound>
CC(=O)OC[C@]1(C)C(=O)C(C#N)=C[C@]2(C)C3=CC(=O)[C@@H]4[C@@H]5CC(C)(C)CC[C@]5(c5nnc(C)o5)CC[C@@]4(C)[C@]3(C)CC[C@H]21

>  <measure>
pIC50

>  <recordedMeasurement>
7.34

$$$$
>  <compound>
COC(=O)[C@]12CCC(C)(C)C[C@H]1[C@H]1C(=O)C=C3[C@@]4(C)C=C(C#N)C(=O)[C@@](C)(CO)[C@@H]4CC[C@@]3(C)[C@]1(C)CC2 [Comparison Compound #300, reference compound]

>  <measure>
pIC50

>  <recordedMeasurement>
7.74

$$$$
>  <compound>
CNC(=O)[C@]1(C)C(=O)C(C#N)=C[C@]2(C)C3=CC(=O)[C@]45OC(=O)[C@@]6(CCC(C)(C)C[C@H]64)CC[C@@]5(C)[C@]3(C)CC[C@@H]12

>  <measure>
pIC50

>  <recordedMeasurement>
7.17

$$$$
>  <compound>
Cc1noc([C@]23CCC(C)(C)C[C@H]2[C@H]2C(=O)C=C4[C@@]5(C)[C@H]6O[C@@]6(C#N)C(=O)[C@@](C)(O)[C@@H]5CC[C@@]4(C)[C@]2(C)CC3)n1

>  <measure>
pIC50

>  <recordedMeasurement>
7.74

$$$$
>  <compound>
COC(=O)N[C@]12CCC(C)(C)C[C@H]1[C@H]1C(=O)C=C3[C@@]4(C)C=C(C#N)C(=O)[C@@](C)(CO)[C@@H]4CC[C@@]3(C)[C@]1(C)CC2

>  <measure>
pIC50

>  <recordedMeasurement>
7.43

$$$$
>  <compound>
CC1(C)CC[C@]2(NC(=O)C(C)(F)F)CC[C@]3(C)[C@H](C(=O)C=C4[C@@]5(C)C=C(C#N)C(=O)[C@@](C)(CO)[C@@H]5CC[C@]43C)[C@@H]2C1

>  <measure>
pIC50

>  <recordedMeasurement>
7.17

$$$$
>  <compound>
COC(=O)[C@]12CCC(C)(C)C[C@H]1[C@H]1C(=O)C=C3[C@@]4(C)C=C(C#N)C(=O)[C@@](C)(C(F)F)[C@@H]4CC[C@@]3(C)[C@]1(C)CC2

>  <measure>
pIC50

>  <recordedMeasurement>
7.54

$$$$
>  <compound>
Cc1nnc([C@]23CCC(C)(C)C[C@H]2[C@H]2C(=O)C=C4[C@@]5(C)C=C(C#N)C(=O)C(C)(C)[C@@H]5CC[C@@]4(C)[C@]2(C)CC3)o1 [Comparison Compound #8, reference compound]

>  <measure>
pIC50

>  <recordedMeasurement>
7.49

$$$$
>  <compound>
CC1(C)CC[C@]2(NC(=O)C(C)(F)F)CC[C@]3(C)[C@H](C(=O)C=C4[C@@]5(C)C=C(C#N)C(=O)[C@@](C)(O)[C@@H]5CC[C@]43C)[C@@H]2C1

>  <measure>
pIC50

>  <recordedMeasurement>
7.21

$$$$
>  <compound>
Cc1noc([C@]23CCC(C)(C)C[C@H]2[C@H]2C(=O)C=C4[C@@]5(C)C=C(C#N)C(=O)C(C)(C)[C@@H]5CC[C@@]4(C)[C@]2(C)CC3)n1 [Comparison Compound #9, reference compound]

>  <measure>
pIC50

>  <recordedMeasurement>
7.74

$$$$
>  <compound>
CN(C)C(=O)[C@]1(C)C(=O)C(C#N)=C[C@]2(C)C3=CC(=O)[C@]45OC(=O)[C@@]6(CCC(C)(C)C[C@H]64)CC[C@@]5(C)[C@]3(C)CC[C@@H]12

>  <measure>
pIC50

>  <recordedMeasurement>
6.90

$$$$
>  <compound>
Cc1nnc([C@]23CCC(C)(C)C[C@H]2[C@H]2C(=O)C=C4[C@@]5(C)C=C(C#N)C(=O)[C@@](C)(O)[C@@H]5CC[C@@]4(C)[C@]2(C)CC3)o1

>  <measure>
pIC50

>  <recordedMeasurement>
7.30

$$$$
>  <compound>
COCOC[C@]1(C)C(=O)C(C#N)=C[C@]2(C)C3=CC(=O)[C@@H]4[C@@H]5CC(C)(C)CC[C@]5(C(=O)OC)CC[C@@]4(C)[C@]3(C)CC[C@H]21

>  <measure>
pIC50

>  <recordedMeasurement>
7.57

$$$$
>  <compound>
COC(=O)N[C@]12CCC(C)(C)C[C@H]1[C@H]1C(=O)C=C3[C@@]4(C)C=C(C#N)C(=O)C(C)(C)[C@@H]4CC[C@@]3(C)[C@]1(C)CC2 [Comparison Compound #7, reference compound]

>  <measure>
pIC50

>  <recordedMeasurement>
7.57

$$$$
>  <compound>
CCNC(=O)[C@]12CCC(C)(C)C[C@H]1[C@H]1C(=O)C=C3[C@@]4(C)C=C(C#N)C(=O)[C@@](C)(CO)[C@@H]4CC[C@@]3(C)[C@]1(C)CC2

>  <measure>
pIC50

>  <recordedMeasurement>
7.17

$$$$
>  <compound>
CC1(C)CC[C@@]23CC[C@@]4(C)[C@]5(C)CC[C@H]6[C@](C)(C(N)=O)C(=O)C(C#N)=C[C@]6(C)C5=CC(=O)[C@]4(OC2=O)[C@@H]3C1

>  <measure>
pIC50

>  <recordedMeasurement>
6.47

$$$$
>  <compound>
COC(=O)[C@]1(C)C(=O)C(C#N)=C[C@]2(C)C3=CC(=O)[C@]45OC(=O)[C@@]6(CCC(C)(C)C[C@H]64)CC[C@@]5(C)[C@]3(C)CC[C@@H]12

>  <measure>
pIC50

>  <recordedMeasurement>
7.34

$$$$
